Molecular target: Human S1P4 receptor (Homo sapiens, UniProt O95977)
Sequence (O95977 whole entry): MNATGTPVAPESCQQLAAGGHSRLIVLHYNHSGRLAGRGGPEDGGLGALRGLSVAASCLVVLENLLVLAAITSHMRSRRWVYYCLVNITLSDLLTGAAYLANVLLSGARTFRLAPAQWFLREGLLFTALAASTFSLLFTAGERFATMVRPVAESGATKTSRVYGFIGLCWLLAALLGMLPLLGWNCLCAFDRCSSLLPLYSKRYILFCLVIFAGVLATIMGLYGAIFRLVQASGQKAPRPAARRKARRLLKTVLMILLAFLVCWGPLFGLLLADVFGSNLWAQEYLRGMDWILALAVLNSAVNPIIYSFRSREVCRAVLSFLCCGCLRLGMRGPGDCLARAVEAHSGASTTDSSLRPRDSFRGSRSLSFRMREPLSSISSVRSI
Experiment: Agonist activity at an S1P4 receptor (calcium influx)
Assay type: cell-based
Conditions: at 1000 nM; read-out: activity at S1P4 receptor (elevation of intracellular calcium)
parameter: activation at 1 µM

Solved entries:
CC(C)Oc1ccc(-c2cnc(-c3ccc(CN4CC(C(=O)O)C4)cc3F)s2)cc1Cl [Example 11]    < 20%
CC(C)Cc1ccc(-c2cnc(-c3ccc(CN4CC(C(=O)O)C4)cc3)s2)cc1 [Example 48]    < 20%
Cc1cc(-c2ncc(-c3ccc(OC(C)C)c(Cl)c3)s2)ccc1CN1CC(C(=O)O)C1 [Example 62]    < 20%

Challenge: Enter reported activation at 1 µM observed with Human S1P4 receptor (Homo sapiens, UniProt O95977) for CC(C)Oc1ccc(-c2cnc(-c3ccc(CN4CC(C(=O)O)C4)cc3)s2)c(C(F)(F)F)c1 [Example 55]
Response given: < 20%

---

Kindly state pEC50 for each of the entries shown.
Target: Human S1P1 receptor (Homo sapiens, UniProt P21453)
Sequence (P21453 whole entry): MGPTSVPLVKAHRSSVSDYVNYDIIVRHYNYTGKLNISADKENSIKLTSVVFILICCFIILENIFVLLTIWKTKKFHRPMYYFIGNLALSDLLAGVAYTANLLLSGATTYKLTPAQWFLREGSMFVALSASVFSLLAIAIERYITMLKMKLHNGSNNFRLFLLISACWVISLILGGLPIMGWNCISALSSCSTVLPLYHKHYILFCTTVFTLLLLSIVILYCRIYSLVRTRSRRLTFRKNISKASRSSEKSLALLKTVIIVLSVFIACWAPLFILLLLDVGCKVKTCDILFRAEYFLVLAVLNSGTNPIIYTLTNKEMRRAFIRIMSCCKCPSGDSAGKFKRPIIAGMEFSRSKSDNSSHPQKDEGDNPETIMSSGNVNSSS
Test: Agonist activity at an S1P1 receptor (reporter assay, EDG1-bla/U2OS cells)
Format: cell-based
Set-up: host or cells: U2OS (EDG1-bla/U2OS)
Details: S1P maximum response = 100%
pEC50: −log10 of the molar value.

Solved entries:
Cc1cc(-c2ncc(-c3ccc(OC(C)C)cc3)s2)ccc1CN1CC(C(=O)O)C1    ≥ 8.00
CCCCCc1ccc(-c2cnc(-c3ccc(CN4CC(C(=O)O)C4)cc3)s2)cc1    ≥ 7.00
CCCCOc1ccc(-c2cnc(-c3ccc(CN4CC(C(=O)O)C4)cc3)s2)cc1    ≥ 7.00
CCCCCOc1ccc(-c2cnc(-c3ccc(CN4CC(C(=O)O)C4)cc3)s2)cc1    ≥ 6.30
O=C(O)C1CN(Cc2ccc(-c3ncc(-c4ccc(C5CCCCC5)cc4)s3)cc2)C1    ≥ 8.00

Would you mind giving pEC50 for every compound in the list below?
1. CC(C)Oc1ccc(-c2cnc(-c3ccc(CN4CC(C(=O)O)C4)c(F)c3)s2)cc1Cl
2. CC(C)Oc1ccc(-c2cnc(-c3ccc(CN4CC(C(=O)O)C4)c(C(F)(F)F)c3)s2)cc1Cl
3. Cc1cc(-c2cnc(-c3ccc(CN4CC(C(=O)O)C4)cc3)s2)ccc1OC(C)C
4. O=C(O)C1CN(Cc2ccc(-c3ncc(-c4ccc(C5CCCC5)cc4)s3)cc2)C1
5. CC(C)Cc1ccc(-c2cnc(-c3ccc(CN4CC(C(=O)O)C4)cc3)s2)cc1
6. CC(C)Oc1ccc(-c2cnc(-c3ccc(CN4CC(C(=O)O)C4)c(F)c3)s2)cc1
7. Cc1cc(CN2CC(C(=O)O)C2)ccc1-c1ncc(-c2ccc(OC(C)C)cc2)s1
8. O=C(O)C1CN(Cc2ccc(-c3ncc(-c4ccc(OC5CCCC5)cc4)s3)cc2)C1

Response given:
1: ≥ 9.00; 2: ≥ 9.00; 3: ≥ 9.00; 4: ≥ 9.00; 5: ≥ 9.00; 6: ≥ 8.00; 7: ≥ 8.00; 8: ≥ 7.00

---

Kindly state EC50 for each of the entries shown.
Biological target: Human S1P1 receptor (Homo sapiens, UniProt P21453)
Experiment: Agonist activity at an S1P1 receptor ([35S]-GTPγS exchange reaction, membrane fractions)
Format: biochemical
Conditions: read-out: EC50, agonist activity at S1P1 receptor (GTP exchange reaction)

Solved entries:
CC(C)Cc1ccc(-c2cnc(-c3ccc(CN4CC(C(=O)O)C4)cc3F)s2)cc1C#N    ≤ 50 nM
O=C(O)C1CN(Cc2ccc(-c3ncc(-c4ccc(OC5CCC5)cc4)s3)cc2)C1    ≤ 500 nM
CC(C)Oc1ccc(-c2cnc(-c3ccc(CN4CC(C(=O)O)C4)cc3F)s2)cc1Cl    ≤ 10 nM
COc1cc(-c2ncc(-c3ccc(OC(C)C)c(Cl)c3)s2)ccc1CN1CC(C(=O)O)C1    ≤ 10 nM
COc1cc(CN2CC(C(=O)O)C2)ccc1-c1ncc(-c2ccc(OC(C)C)c(Cl)c2)s1    ≤ 10 nM

Would you mind giving EC50 for every compound in the list below?
1. CC(C)c1ccc(-c2cnc(-c3ccc(CN4CC(C(=O)O)C4)cc3)s2)cc1
2. CC(C)Oc1ccc(-c2cnc(-c3ccc(CN4CC(C(=O)O)C4)c(F)c3)s2)cc1
3. Cc1cc(CN2CC(C(=O)O)C2)ccc1-c1ncc(-c2ccc(OC(C)C)cc2)s1

Response given:
1: ≤ 50 nM; 2: ≤ 10 nM; 3: ≤ 50 nM

---

Target: Human S1P4 receptor (Homo sapiens, UniProt O95977)
Test: Agonist activity at a S1P4 receptor (reporter assay, EDG6-bla/U2OS cells)
pEC50: −log10 of the molar value.
Kindly state pEC50 for each of the entries shown.

CC(C)Oc1ccc(-c2cnc(-c3ccc(CN4CC(C(=O)O)C4)cc3)s2)cc1    ≤ 5.70

Read the next record carefully.
Challenge: Item CC(C)Oc1ccc(-c2cnc(-c3ccc(CN4CC(C(=O)O)C4)cc3)s2)cc1Cl has what recorded pEC50?
Response given: ≤ 5.70

---

Target: Human S1P3 receptor (Homo sapiens, UniProt Q99500)
Sequence (Q99500 whole entry): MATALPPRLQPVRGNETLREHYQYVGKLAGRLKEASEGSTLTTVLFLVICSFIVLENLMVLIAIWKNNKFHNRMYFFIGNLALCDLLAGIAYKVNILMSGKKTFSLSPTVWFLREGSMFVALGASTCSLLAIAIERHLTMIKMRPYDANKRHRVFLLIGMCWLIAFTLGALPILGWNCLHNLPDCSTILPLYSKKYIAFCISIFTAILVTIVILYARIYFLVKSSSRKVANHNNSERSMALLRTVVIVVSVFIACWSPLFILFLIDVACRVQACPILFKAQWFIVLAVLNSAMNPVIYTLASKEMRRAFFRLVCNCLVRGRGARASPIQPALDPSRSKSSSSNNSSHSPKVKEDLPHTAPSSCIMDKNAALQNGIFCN
Experiment: Agonist activity at an S1P3 receptor ([35S]-GTPγS exchange reaction at 1000 nM)
Format: biochemical
Details: read-out: percent of the maximal agonist activity at S1P3 receptor
parameter: Emax at 1 µM

Solved entries:
CC(C)Oc1ccc(-c2cnc(-c3ccc(CN4CC(C(=O)O)C4)c(Cl)c3)s2)cc1Cl    < 20%
CC(C)Cc1ccc(-c2cnc(-c3ccc(CN4CC(C(=O)O)C4)cc3F)s2)cc1C#N    < 20%
CC(C)Oc1ccc(-c2cnc(-c3ccc(CN4CC(C(=O)O)C4)c(C(F)(F)F)c3)s2)cc1Cl    < 20%
CC(C)Oc1ccc(-c2cnc(-c3ccc(CN4CC(C(=O)O)C4)cc3)s2)cc1C(F)(F)F    20 to 50%

Would you mind giving Emax at 1 µM for every molecule in the list below?
1. O=C(O)C1CN(Cc2ccc(-c3ncc(-c4ccc(C5CCCCC5)cc4)s3)cc2)C1
2. CCCOc1ccc(-c2cnc(-c3ccc(CN4CC(C(=O)O)C4)cc3)s2)cc1
3. CC(C)Oc1ccc(-c2cnc(-c3ccc(CN4CC(C(=O)O)C4)cc3Cl)s2)cc1

Response given:
1: < 20%; 2: < 20%; 3: 20 to 50%

Would you mind giving Emax at 1 µM for every molecule in the list below?
1. CCOc1ccc(-c2cnc(-c3ccc(CN4CC(C(=O)O)C4)cc3)s2)cc1
2. CC(C)Oc1ccc(-c2cnc(-c3ccc(CN4CC(C(=O)O)C4)c(F)c3)s2)cc1Cl

Response given:
["< 20%", "< 20%"]

Challenge: Enter reported Emax at 1 µM observed with Human S1P3 receptor (Homo sapiens, UniProt Q99500) for CC(C)Oc1ccc(-c2cnc(-c3ccc(CN4CC(C(=O)O)C4)c(Cl)c3)s2)cc1
Response given: < 20%

---

Kindly state pEC50 for each of the entries shown.
Biological target: Human S1P1 receptor (Homo sapiens, UniProt P21453)
Assay: Agonist activity at an S1P1 receptor (reporter assay, EDG1-bla/U2OS cells)
Type: cell-based
Design: host or cells: U2OS (EDG1-bla/U2OS)
Settings: S1P maximum response = 100%
pEC50: −log10 of the molar value.

Solved entries:
Cc1cc(CN2CC(C(=O)O)C2)ccc1-c1ncc(-c2ccc(OC(C)C)c(Cl)c2)s1    ≥ 9.00
CC(C)c1ccc(-c2cnc(-c3ccc(CN4CC(C(=O)O)C4)cc3)s2)cc1    ≥ 8.00
CC(C)Oc1ccc(-c2cnc(-c3ccc(CN4CC(C(=O)O)C4)c(Cl)c3)s2)cc1Cl    ≥ 9.00
CC(C)Oc1ccc(-c2cnc(-c3ccc(CN4CC(C(=O)O)C4)c(C(F)(F)F)c3)s2)cc1    ≥ 7.00
CCCCCCc1ccc(-c2cnc(-c3ccc(CN4CC(C(=O)O)C4)cc3)s2)cc1    ≥ 6.30
CC(C)Oc1ccc(-c2cnc(-c3ccc(CN4CC(C(=O)O)C4)cc3F)s2)cc1    ≥ 8.00
O=C(O)C1CN(Cc2ccc(-c3ncc(-c4ccc(OC5CC5)cc4)s3)cc2)C1    ≥ 7.00
CC(C)Cc1ccc(-c2cnc(-c3ccc(CN4CC(C(=O)O)C4)cc3F)s2)cc1C#N    ≥ 9.00

Would you mind giving pEC50 for every compound in the list below?
1. CCc1cc(-c2ncc(-c3ccc(OC(C)C)cc3)s2)ccc1CN1CC(C(=O)O)C1
2. COc1cc(-c2ncc(-c3ccc(OC(C)C)cc3)s2)ccc1CN1CC(C(=O)O)C1

Response given:
["≥ 7.00", "≥ 7.00"]

---

Biological target: UniProt P21453
Assay: Agonist activity at an S1P1 receptor (reporter assay, EDG1-bla/U2OS cells)
Type: cell-based
Set-up: host or cells: U2OS (EDG1-bla/U2OS)
Settings: S1P maximum response = 100%
pEC50: −log10 of the molar value.
parameter: pEC50

Would you mind giving pEC50 for every compound in the list below?
1. CCCc1ccc(-c2cnc(-c3ccc(CN4CC(C(=O)O)C4)cc3)s2)cc1 [Example 45]
2. CCCCc1ccc(-c2cnc(-c3ccc(CN4CC(C(=O)O)C4)cc3)s2)cc1 [Example 47]
3. CCc1cc(CN2CC(C(=O)O)C2)ccc1-c1ncc(-c2ccc(OC(C)C)cc2)s1 [Example 15]
4. Cc1cc(OC(C)C)ccc1-c1cnc(-c2ccc(CN3CC(C(=O)O)C3)cc2)s1 [Example 54]
5. CC(C)Oc1ccc(-c2cnc(-c3ccc(CN4CC(C(=O)O)C4)cc3)s2)cc1C#N [Example 50]

Response given:
1. ≥ 8.00
2. ≥ 8.00
3. ≥ 8.00
4. ≥ 7.00
5. ≥ 9.00

Would you mind giving pEC50 for every compound in the list below?
1. Cc1cc(-c2ncc(-c3ccc(OC(C)C)c(Cl)c3)s2)ccc1CN1CC(C(=O)O)C1 [Example 62]
2. COc1cc(CN2CC(C(=O)O)C2)ccc1-c1ncc(-c2ccc(OC(C)C)cc2)s1 [Example 18]
3. CCCOc1ccc(-c2cnc(-c3ccc(CN4CC(C(=O)O)C4)cc3)s2)cc1 [Example 38]

Response given:
1: ≥ 9.00; 2: ≥ 6.30; 3: ≥ 7.00
